For each entry below, report its Normalized average relative binding affinity(ARB) value.
Biological target: HLA B*5801 (Homo sapiens, UniProt P01889, A329T/C349S/D201E/D98Y/E176V/E187L/E204Q/E69T/G107R/I218V/I90N/K202T/L105A/L119I/N104I/N87E/Q89R/Q94S/R106L/R155S/R180L/R86G/S101N/S121R/S35A/S48A/T118I/V127L/V306I/V36M/Y140S/Y91M)
Format: binding
One number for each entry.

// solved cases for Normalized average relative binding affinity(ARB) follow
ordered residues	recorded measurement
XXXXXXXVX [3064.0158]	0.20
XXXYXXXXX [3064.0080]	0.27
XXXXXXXTX [3064.0157]	0.29
XXXQXXXXX [3064.0074]	0.46

Please go through the list and note Normalized average relative binding affinity(ARB) for each sequence.
1. XXXXXXXHX [3064.0147]
2. XXXEXXXXX [3064.0064]
3. XXXXXPXXX [3064.0113]
4. XXXIXXXXX [3064.0068]
5. XXXXXXXMX [3064.0151]
6. XXXPXXXXX [3064.0073]

Found:
1. 0.18
2. 0.21
3. 0.20
4. 0.23
5. 0.18
6. 1.0
